Each recorded value in this set is attributed to patent US6596687B1.

molecular target: T1, VLA-4 (alpha4beta1 integrin) (UniProt P13612 34-1032; P05556 21-798, limits assumed); experiment: Ramos/BSA-CS1 adhesion inhibition
T1 construct: whole, on cells; also called very late antigen-4; CD49d/CD29
T1 sequence (P13612 34-1032 limits assumed, chain 1 of 2): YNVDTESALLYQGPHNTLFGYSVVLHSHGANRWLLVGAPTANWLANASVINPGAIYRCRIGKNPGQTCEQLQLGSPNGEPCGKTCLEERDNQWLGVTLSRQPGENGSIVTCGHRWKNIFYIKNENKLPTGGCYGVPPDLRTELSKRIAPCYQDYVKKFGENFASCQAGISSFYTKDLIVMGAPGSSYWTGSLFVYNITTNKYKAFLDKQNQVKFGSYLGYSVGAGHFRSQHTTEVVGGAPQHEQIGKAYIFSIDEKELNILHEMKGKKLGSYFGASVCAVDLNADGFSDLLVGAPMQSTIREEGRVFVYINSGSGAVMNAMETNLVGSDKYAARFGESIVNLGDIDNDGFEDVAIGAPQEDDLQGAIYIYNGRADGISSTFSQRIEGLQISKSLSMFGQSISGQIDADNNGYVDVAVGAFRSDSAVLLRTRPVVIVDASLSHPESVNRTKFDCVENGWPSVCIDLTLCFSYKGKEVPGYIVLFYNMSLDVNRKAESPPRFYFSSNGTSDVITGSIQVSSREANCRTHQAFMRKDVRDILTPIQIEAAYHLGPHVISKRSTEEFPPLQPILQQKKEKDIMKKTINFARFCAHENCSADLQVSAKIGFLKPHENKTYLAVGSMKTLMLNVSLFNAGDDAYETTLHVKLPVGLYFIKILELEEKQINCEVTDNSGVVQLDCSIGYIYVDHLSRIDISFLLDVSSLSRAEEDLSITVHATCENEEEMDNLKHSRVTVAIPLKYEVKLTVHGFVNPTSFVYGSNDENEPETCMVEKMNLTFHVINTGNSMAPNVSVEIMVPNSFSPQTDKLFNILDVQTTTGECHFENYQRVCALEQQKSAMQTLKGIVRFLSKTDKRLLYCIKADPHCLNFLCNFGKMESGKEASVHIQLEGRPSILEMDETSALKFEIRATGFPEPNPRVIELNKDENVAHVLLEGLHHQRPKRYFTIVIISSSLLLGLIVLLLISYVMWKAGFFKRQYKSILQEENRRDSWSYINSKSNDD
T1 sequence (P05556 21-798 limits assumed, chain 2 of 2): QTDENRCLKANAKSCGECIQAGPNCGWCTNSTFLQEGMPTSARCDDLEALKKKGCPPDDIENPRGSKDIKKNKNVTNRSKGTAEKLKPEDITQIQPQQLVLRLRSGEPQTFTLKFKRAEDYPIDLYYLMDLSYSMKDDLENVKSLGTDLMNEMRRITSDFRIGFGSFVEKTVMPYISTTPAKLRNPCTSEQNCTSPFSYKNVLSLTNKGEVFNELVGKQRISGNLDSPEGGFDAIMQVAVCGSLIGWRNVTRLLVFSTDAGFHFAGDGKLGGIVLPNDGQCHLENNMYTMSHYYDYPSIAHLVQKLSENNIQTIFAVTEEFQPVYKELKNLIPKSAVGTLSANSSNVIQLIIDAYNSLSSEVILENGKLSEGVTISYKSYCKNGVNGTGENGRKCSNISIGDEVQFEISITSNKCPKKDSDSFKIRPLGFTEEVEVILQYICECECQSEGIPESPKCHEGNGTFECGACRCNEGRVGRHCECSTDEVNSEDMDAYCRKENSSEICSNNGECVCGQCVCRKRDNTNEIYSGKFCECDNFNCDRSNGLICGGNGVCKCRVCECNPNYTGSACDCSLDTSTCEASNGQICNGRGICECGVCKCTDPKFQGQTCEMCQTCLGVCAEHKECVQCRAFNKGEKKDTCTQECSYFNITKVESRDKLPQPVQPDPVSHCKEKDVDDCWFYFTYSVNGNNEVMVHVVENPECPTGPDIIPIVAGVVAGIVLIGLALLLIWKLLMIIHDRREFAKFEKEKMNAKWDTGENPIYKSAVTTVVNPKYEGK
pIC50: −log10 of the molar value.
readout type: pIC50

Example binders with recorded pIC50:
{"binder": "{3‑methoxy‑4‑(N'-phenylurea)phenylacetyl}-MDVP-OH [Compound 2]", "pIC50": "> 7.30"}
{"binder": "Ac-FLDV-OH [Compound 152]", "pIC50": "< 5.00"}
{"binder": "MDVP (HELM PEPTIDE1{[Cc1ccccc1NC(=O)Nc1ccc(CC(=O)[*:2])cc1].M.D.V.P}$$$$V2.0; SMILES CSCC[C@H](NC(=O)Cc1ccc(NC(=O)Nc2ccccc2C)cc1)C(=O)N[C@@H](CC(=O)O)C(=O)N[C@H](C(=O)N1CCC[C@H]1C(=O)O)C(C)C) [Compound 315]", "pIC50": "> 7.30"}
{"binder": "{2‑MPUPA}-LDVPS-OH [Compound 337]", "pIC50": "> 7.30"}
{"binder": "VLPD (HELM PEPTIDE1{[Cc1ccccc1NC(=O)Nc1ccc(CC(=O)[*:2])cc1].V.L.P.D}$$$$V2.0; SMILES Cc1ccccc1NC(=O)Nc1ccc(CC(=O)N[C@H](C(=O)N[C@@H](CC(C)C)C(=O)N2CCC[C@H]2C(=O)N[C@@H](CC(=O)O)C(=O)O)C(C)C)cc1) [Compound 339]", "pIC50": "< 5.00"}

Q: Item {4‑(N'-2-hydroxyphenylurea)phenylacetyl}-MDVP-OH [Compound 146] has what recorded pIC50?
Ans: > 7.30

Q: Which pIC50 value belongs to LDVM (HELM PEPTIDE1{[O=C(c1ccc2ccccc2n1)[*:2]].L.D.V.M.[CO[*:1]]}$$$$V2.0; SMILES COC(=O)[C@H](CCSC)NC(=O)[C@@H](NC(=O)[C@H](CC(=O)O)NC(=O)[C@H](CC(C)C)NC(=O)c1ccc2ccccc2n1)C(C)C) [Compound 168] ?
Ans: 5.00 to 7.30

Q: Using the record for LDVM (HELM PEPTIDE1{[CC(C)(C)OC(=O)[*:2]].L.D.V.M.[CO[*:1]]}$$$$V2.0; SMILES COC(=O)[C@H](CCSC)NC(=O)[C@@H](NC(=O)[C@H](CC(=O)O)NC(=O)[C@H](CC(C)C)NC(=O)OC(C)(C)C)C(C)C) [Compound 167] , report its pIC50.
Ans: < 5.00

Q: Dear colleague, I am looking for the recorded pIC50 of the following binder: FLDV (HELM PEPTIDE1{[O=C(c1ccccc1)[*:2]].F.L.D.V}$$$$V2.0; SMILES CC(C)C[C@H](NC(=O)[C@H](Cc1ccccc1)NC(=O)c1ccccc1)C(=O)N[C@@H](CC(=O)O)C(=O)N[C@H](C(=O)O)C(C)C) [Compound 153]
Ans: < 5.00
